Tested on: JB184 (synthetic)
Assay explanation: EMSA
Readout kind: Kd

Request: What does the data say about its Kd? Entry: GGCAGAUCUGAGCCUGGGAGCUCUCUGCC [HIV-1 TAR]
Result: > 250 nM

----------
Parameter: Kd. Scope: all listed entries.
Target of assay: HIV-1 TAR RNA
Type: binding
Condition set: EMSA; positional scanning library, Table S1; with tRNA; read-out: Kd (nM) w/tRNA
Non-standard residues stand in square brackets, D forms with d. Residues, ends and D or L forms follow the SMILES beside them. hArg = N=C(N)NCCCC[C@H](N)C(=O)O
Enter your answer as a number in nM; do not include the unit.

# example entries with known answers
Compound	Readout kind	Unit tag	Readout value
CC[C@H](C)[C@@H]1NC(=O)[C@H](CCCNC(=N)N)NC(=O)[C@H](CCCNC(=N)N)NC(=O)CNC(=O)[C@H](CCCCN)NC(=O)[C@H](CCCNC(=N)N)NC(=O)[C@H]([C@@H](C)O)NC(=O)[C@H](CCCNC(=N)N)NC(=O)[C@H]([C@@H](C)O)NC(=O)[C@H](CCCNC(=N)N)NC(=O)[C@@H]2CCCN2C(=O)[C@H]2CCCN2C(=O)[C@H]([C@@H](C)CC)NC(=O)[C@H](CCCNC(=N)N)NC1=O [JB-65] (cyclo(RTRTRKGRRIRI[dP]P))	Kd	nM	50
CC[C@H](C)[C@@H]1NC(=O)[C@H](CCCNC(=N)N)NC(=O)[C@H](CCCNC(=N)N)NC(=O)CNC(=O)[C@H](CCCCN)NC(=O)[C@H](CCCCNC(=N)N)NC(=O)[C@H]([C@@H](C)O)NC(=O)[C@H](CCCNC(=N)N)NC(=O)[C@H](C(C)C)NC(=O)[C@H](CCCNC(=N)N)NC(=O)[C@@H]2CCCN2C(=O)[C@H]2CCCN2C(=O)[C@H]([C@@H](C)CC)NC(=O)[C@H](CCCNC(=N)N)NC1=O [KP-Y-03] (cyclo(RVRT[hArg]KGRRIRI[dP]P))	Kd	nM	200
CC[C@H](C)[C@@H]1NC(=O)[C@H](CCCNC(=N)N)NC(=O)[C@H](CCCNC(=N)N)NC(=O)CNC(=O)[C@H](CCCCN)NC(=O)[C@H](CCCNC(=N)N)NC(=O)[C@H]([C@@H](C)O)NC(=O)[C@H](CCCNC(=N)N)NC(=O)[C@H](CC(N)=O)NC(=O)[C@H](CCCNC(=N)N)NC(=O)[C@@H]2CCCN2C(=O)[C@H]2CCCN2C(=O)[C@H]([C@@H](C)CC)NC(=O)[C@H](CCCNC(=N)N)NC1=O [JB-63] (cyclo(RNRTRKGRRIRI[dP]P))	Kd	nM	100

Now take the following compound into account.
Request: Item CC[C@H](C)[C@@H]1NC(=O)[C@H](CCCNC(=N)N)NC(=O)[C@H](CCCNC(=N)N)NC(=O)CNC(=O)[C@H](CCCCN)NC(=O)[C@H](CCCNC(=N)N)NC(=O)[C@H]([C@@H](C)O)NC(=O)[C@H](CCCNC(=N)N)NC(=O)[C@H](C(C)C)NC(=O)[C@H](CCCCN)NC(=O)[C@@H]2CCCN2C(=O)[C@H]2CCCN2C(=O)[C@H]([C@@H](C)CC)NC(=O)[C@H](CCCNC(=N)N)NC1=O [JB-60] (cyclo(KVRTRKGRRIRI[dP]P)) has what recorded Kd?
Result: 300
